Property: Mean FL2-H; scope: individual binders
# Test Target: T1, BCMA expressed on multiple myeloma cell lines H929 and MM1S (UniProt Q02223 1-184, limits assumed)
# T1 construct: whole, on cells; Endogenous BCMA on tumour cell lines; also called BMCA; cell surface BCMA
# T1 sequence (looked up): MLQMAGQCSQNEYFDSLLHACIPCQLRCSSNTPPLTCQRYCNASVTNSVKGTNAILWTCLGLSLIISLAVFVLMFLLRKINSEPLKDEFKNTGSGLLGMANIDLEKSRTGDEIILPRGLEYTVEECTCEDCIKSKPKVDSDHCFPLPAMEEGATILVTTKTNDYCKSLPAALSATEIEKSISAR
# Method Description: flow cytometry, MM1S cells, purified VH-Fc protein, 100nM per the sample name; control anti-hFc-PE Mean 2.81 [B), MM1S table]
Answer field: number only, no words.

Worked examples follow.
MN8 VH-Fc protein (Fc fusion, VH domain fused to a human IgG1 Fc domain; not shown: human IgG1 Fc domain) EVQLVESGGGLVQPGGSLRLSCAASGFTFSSYAMGWVRQAPGKGPEVVSLISGSGGSTWYDDSVKGRFTISRDNSKNTLYLQMNSLRAEDTAVYYCASPEDAPSYSRWGQGTLVTVSS: 3.13
MN7 VH-Fc protein (Fc fusion, VH domain fused to a human IgG1 Fc domain; not shown: human IgG1 Fc domain) EVQLVESGGGLVQPGGSLRLSCAASGFTFSSYAMGWVRQAPGKGPEVVSLISGSGGSTWYDDSVKGRFTISRDNSKNTLYLQMNSLRAEDTAVYYCASPEDMYQTWGQGTLVTVSS: 2.89
MN5 VH-Fc protein (Fc fusion, VH domain fused to a human IgG1 Fc domain; not shown: human IgG1 Fc domain) EVQLVESGGGLVQPGGSLRLSCAASGFTFSSYAMGWVRQAPGKGPEVVSLISGSGGSTWYDDSVKGRFTISRDNSKNTLYLQMNSLRAEDTAVYYCASREDNMTTWGQGTLVTVSS: 3.02

# ---- query binder ----
State the recorded Mean FL2-H for this entry: MN1 VH-Fc protein (Fc fusion, VH domain fused to a human IgG1 Fc domain; not shown: human IgG1 Fc domain) EVQLVESGGGLVQPGGSLRLSCAASGFTFTAYDMGWVRQAPGKGPEWVSLISSDSGDTWYDDSVKGRFTISRDNSKNTLYLQMNSLRAEDTAVYYCARLGAYSTTYDYWGQGTLVTVSS 49.9
